Property: Solubility (MeOH, room temperature)/% by weight; scope: individual compounds
Experiment: Solubility of buffer material in methanol at room temperature
Format: physicochemical
READOUT TYPE: Solubility (MeOH, room temperature)/% by weight (% by weight)

COMPOUND | UNIT DESCRIPTOR | MEASUREMENT QUALIFIER | REPORTED MEASUREMENT
O=P(c1ccccc1)(c1ccc2ccc3cccc4ccc1c2c34)c1ccc2ccc3cccc4ccc1c2c34 [POPy2] | % by weight | < | 0.01
O=P(c1ccccc1)(c1ccccc1)c1ccccc1 [POPh3] | % by weight | > | 5.0
O=P(c1ccccc1)(c1ccccc1)c1ccc2c(c1)C1(c3ccccc3-c3ccccc31)c1cc(P(=O)(c3ccccc3)c3ccccc3)ccc1-2 [POSFPO] | % by weight | = | 0.5
O=P(c1ccccc1)(c1ccccc1)c1c(F)c(F)c(-c2c(F)c(F)c(P(=O)(c3ccccc3)c3ccccc3)c(F)c2F)c(F)c1F [POFBPO] | % by weight | = | 1
c1ccc(-c2cc(-c3ccc4ccccc4c3)nc3c2ccc2c(-c4ccccc4)cc(-c4ccc5ccccc5c4)nc23)cc1 [NBPhen] | % by weight | < | 0.01
O=P(c1ccccc1)(c1ccccc1)c1ccc2c(c1)c1cc(P(=O)(c3ccccc3)c3ccccc3)ccc1n2-c1ccccc1 [POCzPO] | % by weight | > | 8
c1ccc(-n2c(-c3cc(-c4nc5ccccc5n4-c4ccccc4)cc(-c4nc5ccccc5n4-c4ccccc4)c3)nc3ccccc32)cc1 [TPBi] | % by weight | < | 0.01
O=P(c1ccccc1)(c1ccccc1)c1cccc(-c2cc(-c3ccccc3)cc(-c3cccc(P(=O)(c4ccccc4)c4ccccc4)c3)n2)c1 [PO(TPP)PO] | % by weight | > | 8
Cc1cc(-c2ccccc2)c2ccc3c(-c4ccccc4)cc(C)nc3c2n1 [BCP] | % by weight | = | 0.1
O=P(c1ccccc1)(c1ccccc1)c1ccc2ccccc2c1-c1c(P(=O)(c2ccccc2)c2ccccc2)ccc2ccccc12 [BINAPO] | % by weight | = | 4
